target: HLA-B*58:01 (Homo sapiens, UniProt P01889, A329T/C349S/D201E/D98Y/E176V/E187L/E204Q/E69T/G107R/I218V/I90N/K202T/L105A/L119I/N104I/N87E/Q89R/Q94S/R106L/R155S/R180L/R86G/S101N/S121R/S35A/S48A/T118I/V127L/V306I/V36M/Y140S/Y91M); format: binding; conditions: time points 0-8 h
Kindly note that classification relies on O-rate B*58:01 (t1/2) with these boundaries: lowest = under 50 min, middle = from 50 min up to 90 min, highest = 90 min and over

substance: KAGCQTYKW
classification: highest
--
substance: QAWQAQWNQ [Rv0288_52–60]
classification: lowest
--
substance: YQAWQAQWN [Rv0288_51–59]
classification: highest

Classify this substance: GT HSWEYWG
highest

Form: Item = WQGDTGITY [Rv0288_43–51] ; Class = ?
highest

Place this substance in its band: `MAGSSAMIL`
lowest

Tag the class for SLTKLAAAW [Rv3875_35–43]
middle

Please indicate the class for TGITYQAWQ [Rv0288_47–55] based on its O-rate B*58:01 (t1/2).
lowest

Bin? IMYNYPAML [Rv0288_4–12]
middle

GET /class?item= `AAYHPQQFI`
lowest

Class for MSQIMYNYP [Rv0288_1–9] ?
middle

Hey, which category is RAVKPT GSA in, do you know?
lowest

Just checking, what class would you give QSLGAEIAV [Rv0288_26–34wt] here?
lowest

Entry NGT HSWEYW belongs to which category?
highest

Field: class (O-rate B*58:01 (t1/2)) — entry: `SSAMILAAY`
lowest

Band of `MGRDIKVQF` ?
lowest

Sourced from paper PMC3608651
